Entries annotated with measured Enzyme activity blocking assay, MAX % inhibition
measured-on: T1, human CD73 (full length, on transfected CHOK1 cells) (human, UniProt P21589 27-549)
T1 sequence (looked up): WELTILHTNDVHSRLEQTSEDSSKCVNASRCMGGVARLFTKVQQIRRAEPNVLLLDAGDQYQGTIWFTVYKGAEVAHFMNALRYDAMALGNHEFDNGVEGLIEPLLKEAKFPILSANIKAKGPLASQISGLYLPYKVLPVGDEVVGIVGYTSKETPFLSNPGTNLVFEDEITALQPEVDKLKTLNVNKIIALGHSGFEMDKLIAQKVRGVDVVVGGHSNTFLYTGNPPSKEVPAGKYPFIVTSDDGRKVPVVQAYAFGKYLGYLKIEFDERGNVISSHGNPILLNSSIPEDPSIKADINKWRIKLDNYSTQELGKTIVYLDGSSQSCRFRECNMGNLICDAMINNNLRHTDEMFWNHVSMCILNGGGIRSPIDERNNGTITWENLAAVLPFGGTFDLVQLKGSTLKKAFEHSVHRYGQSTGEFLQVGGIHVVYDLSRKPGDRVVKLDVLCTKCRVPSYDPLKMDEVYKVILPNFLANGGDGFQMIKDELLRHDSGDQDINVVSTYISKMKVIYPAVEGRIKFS
assay-text: cell-based or functional assay
observable: Enzyme activity blocking assay, MAX % inhibition (%)

| binder | numeric-result |
| --- | --- |
| mAb065 (clone 125A4E10), murine anti-CD73 antibody (antibody, V domains shown, Purified from hybridoma supernatant) VH: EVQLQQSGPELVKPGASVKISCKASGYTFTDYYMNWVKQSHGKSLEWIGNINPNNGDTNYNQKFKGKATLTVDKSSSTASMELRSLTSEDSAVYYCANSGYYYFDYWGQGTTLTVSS VL: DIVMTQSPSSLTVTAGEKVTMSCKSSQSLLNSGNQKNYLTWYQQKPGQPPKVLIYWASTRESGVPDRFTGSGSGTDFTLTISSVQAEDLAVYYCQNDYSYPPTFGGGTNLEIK | 56.4 |
| mAb044 (clone 80H7D6), murine anti-CD73 antibody (antibody, V domains shown, Purified from hybridoma supernatant) VH: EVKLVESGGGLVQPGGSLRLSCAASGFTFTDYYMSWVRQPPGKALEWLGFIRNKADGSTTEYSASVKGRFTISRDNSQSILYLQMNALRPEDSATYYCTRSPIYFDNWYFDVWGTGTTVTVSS VL: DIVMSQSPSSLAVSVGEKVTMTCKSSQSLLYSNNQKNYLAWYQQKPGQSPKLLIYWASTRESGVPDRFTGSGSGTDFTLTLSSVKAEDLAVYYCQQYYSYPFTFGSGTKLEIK | 53.5 |
| mAb032 (clone 56F12H8), murine anti-CD73 antibody (antibody, V domains shown, Purified from hybridoma supernatant) VH: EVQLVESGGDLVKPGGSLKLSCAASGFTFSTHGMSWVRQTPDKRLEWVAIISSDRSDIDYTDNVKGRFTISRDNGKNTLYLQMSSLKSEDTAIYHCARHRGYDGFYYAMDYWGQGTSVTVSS VL: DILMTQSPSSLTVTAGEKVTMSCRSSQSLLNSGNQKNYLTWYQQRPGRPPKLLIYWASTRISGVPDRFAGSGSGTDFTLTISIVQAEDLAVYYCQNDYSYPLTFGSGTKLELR | 66.9 |
